Assay: reduced mouse 2C T cell binding to pMHC/ICAM-1 vesicles – MLPCN validation set, flow cytometry, LFA-1/ICAM-1 modulator project, pilot screen (AID 2523)
Conditions: 2C mouse CD8+ T cells, at 7 µM, stronger effect = lower value; measured here: CD8+/vesicle+ event percentage
outcome measure: double positive events (%)

INSERT INTO results (molecule, value_unit, assay_value) VALUES
  ('CCN(CC)c1ccc([C@H]2[C@@H]3CCCC[C@]3(O)CCN2CC(=O)NCc2ccco2)cc1', '%', 60.3),
  ('CS(=O)(=O)c1cccc(C(=O)Oc2ccccc2)c1', '%', 60.5),
  ('CC(=O)N(CCC(Cc1ccccc1)c1ccc2c(c1)OCO2)Cc1ccc(Cl)cc1 (configuration not stated)', '%', 59.9),
  ('Cc1cc(Cl)cc2c1NC(=O)[C@]21[C@@H]2C(=O)N(Cc3ccccc3)C(=O)[C@@H]2[C@@H]2CCCN21', '%', 63.7),
  ('CCc1nc2ccccc2n1Cc1ccc(OC)c(OC)c1', '%', 60.7),
  ('COc1ccc2c(CC(=O)NCC3CCC(C(=O)O)CC3)cc(=O)oc2c1 (configuration not stated)', '%', 59.6),
  ('CC(=O)N/C(=C/c1ccc2c(c1)OCO2)C(=O)NCCO', '%', 61.5),
  ('COc1ccc(C2CC(c3c(O)cc(C)oc3=O)=NCCS2)c(OC)c1 (configuration not stated)', '%', 64.5),
  ('COc1ccc(/C=C\c2cc(OC)c(OC)cc2CC[N+](C)(C)C)cc1OC', '%', 57.8),
  ('Cn1c(=O)[nH]c(=O)c2c1nc(NCc1ccco1)n2CCCc1ccccc1', '%', 62.6),
  ('COc1ccc(CN2CCCC(C(=O)c3ccc(Cl)cc3)C2)cc1Cn1cccn1 (configuration not stated)', '%', 61.3),
  ('COc1ccc(/C=C/C(=O)Nc2ccccc2C(=O)O)cc1OC', '%', 60.2),
  ('C[C@]12CCC(=O)C=C1[C@H](O)C[C@@H]1[C@@H]2[C@@H](O)C[C@@]2(C)[C@H]1CC[C@]2(O)C(=O)CO', '%', 63.9),
  ('CN1CCN2c3ccccc3Cc3ccccc3C2C1 (configuration not stated)', '%', 61.8),
  ('CCN(CC)CCNC(=O)c1cc(Cl)c(N)cc1OC', '%', 63.2),
  ('COc1ccc(CCNC(=O)c2ccc(Cl)cc2)cc1OC', '%', 59.6),
  ('COc1ccc(CN2CCCCC2C(=O)Nc2ccc(OC)c(OCC(C)C)c2)cc1OC (configuration not stated)', '%', 54.3),
  ('CCOC(=O)C1(Cc2cccc(Cl)c2)CCCN(C2CCN(C(C)=O)CC2)C1 (configuration not stated)', '%', 60.5),
  ('COc1ccc(C(=O)Nc2cccc3cccnc23)cc1OC', '%', 49.8),
  ('Fc1ccc(NC(=S)Nc2ccccc2Cl)cc1', '%', 63.7),
  ('CC(C)CC(=O)Nc1ccc2oc(-c3ccncc3)nc2c1', '%', 71.3),
  ('O=C(c1ccco1)N1CCCN(Cc2nc(-c3ccc4c(c3)OCO4)no2)CC1', '%', 62.2),
  ('O=c1oc2c(CN3CCCCC3)c(O)ccc2c2c1CCCCC2', '%', 59.1),
  ('CC/C(=C(\c1ccc(O)cc1)c1ccc(OCCN(C)C)cc1)c1ccccc1', '%', 62.9),
  ('CC12CN3CC(C)(CN(C1)C3c1ccc([N+](=O)[O-])o1)C2 (configuration not stated)', '%', 64.6),
  ('COc1ccccc1NC(=O)Cn1c(C)cc(=O)c2cccc(OC)c21', '%', 60.7),
  ('CC(C)CN1CCN(Cc2ccc(C#CC(C)(C)O)cc2)CC1CCO (configuration not stated)', '%', 67.3),
  ('CCCCCCCCNC(C)C(O)c1ccc(SC(C)C)cc1 (configuration not stated)', '%', 38.1),
  ('CC(=O)C1=C(Nc2ccc(C)cc2)CC(C)(O)C(C(C)=O)C1c1ccco1 (configuration not stated)', '%', 66.9),
  ('Cc1ccccc1C(=O)NCC(=O)O', '%', 61.4),
  ('C=CCC1(O)C(=O)N2C(=C1C(=O)N1CCOCC1)c1ccccc1CC2(C)C (configuration not stated)', '%', 55.4),
  ('O=C(O)CCCCCCNC(=O)c1cncc(O)c1', '%', 63.9),
  ('CC(=O)[C@H]1CC[C@H]2[C@@H]3C[C@H](C)C4=CC(=O)CC[C@]4(C)[C@H]3[C@@H](O)C[C@]12C', '%', 63.6),
  ('Clc1cc(-c2ccc(/C=N/n3cnnc3)o2)ccc1Br', '%', 56.6),
  ('O=C1CCCN1C(=O)CCC(=O)N1CCCC1=O', '%', 62.6),
  ('O=C(Oc1ccc2c3c(c(=O)oc2c1)CCCC3)c1ccco1', '%', 62.5),
  ('COc1ccc(OC)c(C(=O)c2coc3ccc(O)cc23)c1', '%', 63.7);

====

Measured GFP response vs DMSO values are reported for all entries that follow.
Assay: TOR pathway GLN3 branch reporter MEP2-GFP changes – S. cerevisiae, multiplex flow cytometry, primary screen (AID 1867);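 also: median GFP channel fluorescence of barcode-gated MEP2-GFP cells measured by flow cytometry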
Settings: S. cerevisiae MEP2-GFP strain, 3 h, at 10 µM, stronger effect = higher value, 100% means same as DMSO wells
Records with an inconclusive call do not appear.
outcome measure: GFP response vs DMSO (%)

INSERT INTO results (compound, outcome_measure, value_unit, assay_value) VALUES
  ('CC1CC(OC(=O)C(O)c2ccccc2)CC(C)(C)N1C (stereo not given)', 'GFP response vs DMSO', '%', 112),
  ('O=c1c(-c2ccccc2)c(O)c2cccc3c2n1CCC3', 'GFP response vs DMSO', '%', 104),
  ('O=C(Oc1ccccc1)Oc1ccc2c(c1)oc(=O)c1ccccc12', 'GFP response vs DMSO', '%', 126),
  ('CN(C)CCCN1c2ccccc2Sc2ccc(C(F)(F)F)cc21', 'GFP response vs DMSO', '%', 106),
  ('CC(C)c1ccc(OCc2ccc(C(=O)O)o2)cc1', 'GFP response vs DMSO', '%', 102);

====

Assay: reduced mouse 2C T cell binding to pMHC/ICAM-1 vesicles – MLPCN validation set, flow cytometry, LFA-1/ICAM-1 modulator project, pilot screen (AID 2523);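 as to vesicle binding response: mean PE anti-B7-1 fluorescence of CD8+ cells relative to row control; 100% = QL9-loaded vesicles with DMSO vehicle in the same plate row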
Settings: 2C mouse CD8+ T cells, at 7 µM, stronger effect = lower value
outcome measure: vesicle binding response (%)

INSERT INTO measurements (compound, assay_value) VALUES
  ('CCOC(=O)C1=C(C)N[C@@]2(O)c3ccccc3C(=O)[C@@]12O', 254),
  ('O=C(O)C(O)c1ccccc1 (stereo not given)', 90.5),
  ('O=C(O)c1ccc(-c2ccc(O)c(F)c2)cc1', 4700),
  ('O=Cc1ccc(O)c(O)c1', 145),
  ('NC(N)=NC(N)=NCCc1ccccc1', 210);

====

Molecular target: Beta-2 adrenergic receptor (Homo sapiens)
Experiment: agonist-induced loss of surface beta2AR – cell-based, FAP fluorogen, flow cytometry, validation set, pilot screen (AID 504459);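 also: agonist-driven loss of surface beta2AR via internalization measured by FAP dye flow cytometry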
Details: Am2.2-beta2AR cells, at 10 µM, stronger effect = higher value
outcome measure: response (%)

INSERT INTO results (compound, assay_value) VALUES
  ('O=c1c(C(c2ccccc2)c2c(O)sc3ccccc3c2=O)c(O)sc2ccccc12', -1.18),
  ('COc1ccc(OC)c(S(=O)(=O)N2CCCc3ccccc32)c1', 2.04),
  ('COc1ccc(CN2CCCCC2C(=O)Nc2ccc(OC)c(OCC(C)C)c2)cc1OC (stereo not given)', -10.2),
  ('O=C(COc1ccc2c(-c3ccccc3)cc(=O)oc2c1)NCc1cccs1', -25.8),
  ('Cc1ccc2c(c1)C1CN(C)CCC1N2S(=O)(=O)c1ccc(Oc2ccc([N+](=O)[O-])cc2)cc1 (stereo not given)', 25.2),
  ('COc1ccccc1C(=O)Nc1cc2cc(Br)ccc2oc1=O', 4.22),
  ('COc1cc(C(=O)CCN2CCC(c3ccccc3)C2)cc(OC)c1OC (stereo not given)', 2),
  ('COCCN(CCOC)Cc1c(C)[nH]c2c(C)c(C)ccc2c1=O', 4.86),
  ('CC1(C)CC(CC(=O)O)(c2ccc(Cl)cc2)CCO1 (stereo not given)', -2.75),
  ('O=C(Cc1ccccc1[N+](=O)[O-])NCCCN1CCOCC1', -20),
  ('N#CCC(N)=C(C#N)C#N', -2.94),
  ('CC(=O)OC(CC(=O)O)C[N+](C)(C)C (stereo not given)', -0.16),
  ('O=C(O)c1ccccc1OCCOc1ccccc1', 32.2),
  ('CC(NC(=O)OCc1ccccc1)C(=O)N1CC(O)CC1C(=O)O (stereo not given)', 9.77),
  ('CCOC(=O)c1ccc(N2C(=O)C(CC(=O)NC)N(CCc3ccc(OC)c(OC)c3)C2=S)cc1 (stereo not given)', 5.49),
  ('COc1ccc2cc(C3(C)NC(=O)NC3=O)ccc2c1 (stereo not given)', 2.16),
  ('CC(=O)CCCCn1c(=O)c2c(ncn2C)n(C)c1=O', -1.49),
  ('COc1ccc(CCN2C(=O)CSC2c2ccc(OC)c(OC)c2)cc1OC (stereo not given)', -12.9),
  ('Cc1ccc(-c2nn(-c3cccc(F)c3)cc2CN2CCN(c3ccccn3)CC2)o1', 25.4),
  ('CC(C)COCC(CN(Cc1ccccc1)c1ccccc1)N1CCCC1 (stereo not given)', 8.3),
  ('Cc1ccnc2c1NC(=O)c1cccnc1N2C1CC1', -1.22),
  ('CC(=O)N(C(C)=O)c1nc2nc(C)cc(C)n2n1', -13.9),
  ('COc1ccc(C2=CC(=O)C=CC2=O)cc1', 64.2),
  ('CC(C)CC(=O)NC(NC(=O)CC(C)C)c1cccc([N+](=O)[O-])c1', 3.17),
  ('O=C1[C@@H]2[C@H](Cc3ccc(O)cc3)N[C@]3(C(=O)Nc4ccccc43)[C@@H]2C(=O)N1c1ccc(F)cc1', -3.4),
  ('COc1ccccc1C(O)c1nccn1C (stereo not given)', -3.43),
  ('O=C(O)CCSCCC(=O)O', 2.6),
  ('COc1cc(NC(=S)NN2CCN(C)CC2)cc(OC)c1OC', -10.5),
  ('COc1ccc(C(=O)Nc2cccnc2)cc1C(=O)Nc1cccnc1', 9.93),
  ('O=C(O)CCCNc1ccc(S(=O)(=O)Nc2ccccc2C(=O)O)cc1C(=O)O', -8.58),
  ('O=C(CN1C(=O)c2ccccc2C1=O)Nc1cccc([N+](=O)[O-])c1', -3.16),
  ('CC(=O)Nc1ccccc1O', 2.64),
  ('CCOCC(=O)Nc1nc2ccccc2s1', -8.15),
  ('CCOCCn1c(C(C)O)nc2ccccc21 (stereo not given)', -7.33),
  ('O=C1[C@@H]2CSCN2C(=O)CN1Cc1ccc(F)cc1', 5.93),
  ('O=c1nc2sc3ccccc3n2c(=O)n1-c1ccc(Cl)cc1', -10.3),
  ('Cc1nc2ccccn2c(=O)c1CCN1CCC(C(=O)c2ccc(F)cc2)CC1', -22.4),
  ('COC(=O)C1[C@H]2C(=O)N(Cc3cccs3)C[C@]23C=C[C@H]1O3 (stereo not given in full)', -4.45),
  ('COc1cccc(N2C(=O)CC(c3c[nH]c4ccccc34)C2=O)c1 (stereo not given)', 12),
  ('CSCC[C@H](NC(=O)NC1CCCC1)C(=O)O', -7.36);
